# System: rodent lifetime carcinogenesis bioassay, tumor incidence TD50
# experiment: carcinogenic potency in animals, long-term in vivo studies, CPDB compilation (AID 1745844)
# test.parameters: rat; strain F344/DuCrj; males; in feed; site: pancreas; lesion: acinar-cell adenoma; dosed 104 weeks; study length 104 weeks
recorded.endpoint: TD50 (mg/kg/day)

# compound.structure, recorded.endpoint, reading
measured = [
    ("Oc1ccccc1O", "TD50", 1180),
]

----------
# Test system: rodent lifetime carcinogenesis bioassay, tumor incidence TD50
# experiment: carcinogenic potency in animals, long-term in vivo studies, CPDB compilation (AID 1745844)
# test.parameters: rat; strain Donryu; females; in drinking water; site: intestine; lesion: several types; types named in the paper; dosed 68 weeks; study length 68 weeks

# compound.structure, TD50
data = [
    ("NC(=O)N(CC(=O)O)N=O", "5.37 mg/kg/day"),
]

----------
# Tested on: rodent lifetime carcinogenesis bioassay, tumor incidence TD50
# experiment: carcinogenic potency in animals, long-term in vivo studies, CPDB compilation (AID 1745844)
# test.parameters: rat; strain Sprague-Dawley albino; both sexes; in feed; site: mammary gland; lesion: several types; types named in the paper; dosed 104 weeks; study length 104 weeks

# molecule, TD50
data = [
    ("C#C[C@]1(OC(C)=O)CC[C@H]2[C@@H]3CCC4=CC(=O)CC[C@@H]4[C@H]3CC[C@@]21C (tested in a mixture with another compound)", "6.66 mg/kg/day"),
]

----------
# System: rodent lifetime carcinogenesis bioassay, tumor incidence TD50
# experiment: carcinogenic potency in animals, long-term in vivo studies, CPDB compilation (AID 1745844)
# test.parameters: mouse; strain C3H (MTV+); females; in feed; site: liver; lesion: hepatoma; dosed 73 weeks; study length 73 weeks

# compound.structure, target.under.test, TD50
rows = [
    ("O=c1cc[nH]c(=S)[nH]1", "rodent lifetime carcinogenesis bioassay, tumor incidence TD50", "63.3 mg/kg/day"),
]

----------
# Test system: rodent lifetime carcinogenesis bioassay, tumor incidence TD50
# experiment: carcinogenic potency in animals, long-term in vivo studies, CPDB compilation (AID 1745844)
# test.parameters: rat; strain Fischer 344; males; in feed; site: spleen; lesion: hemangiosarcoma; dosed 103 weeks; study length 107 weeks

# compound.structure, target.under.test, TD50
rows = [
    ("Nc1ccccc1", "rodent lifetime carcinogenesis bioassay, tumor incidence TD50", "160 mg/kg/day"),
]

----------
Measured TD50 by item
# Tested on: rodent lifetime carcinogenesis bioassay, tumor incidence TD50
# experiment: carcinogenic potency in animals, long-term in vivo studies, CPDB compilation (AID 1745844)
# test.parameters: mouse; strain B6C3F1; females; by gavage; site: liver; lesion: hepatocellular carcinoma; dosed 103 weeks; study length 104 weeks

# molecule, target.under.test, TD50
measured = [
    ("ClCC(Cl)(Cl)Cl", "rodent lifetime carcinogenesis bioassay, tumor incidence TD50", "640 mg/kg/day"),
    ("S=[Se]", "rodent lifetime carcinogenesis bioassay, tumor incidence TD50", "85.2 mg/kg/day"),
    ("ClC(Cl)C(Cl)(Cl)Cl", "rodent lifetime carcinogenesis bioassay, tumor incidence TD50", "66.6 mg/kg/day"),
    ("CCCCC(CC)COP(=O)(OCC(CC)CCCC)OCC(CC)CCCC (centres undefined)", "rodent lifetime carcinogenesis bioassay, tumor incidence TD50", "2560 mg/kg/day"),
]
